# test method notes: Gelatinizing ability in aqueous solutions of varying pH (gel formation observed)
# Format: physicochemical
# Set-up: key: the formation of gel is indicated by “G”; partial formation of gel is indicated by “LG”; unchanged aqueous solution is indicated by “S”; the formation of a precipitate is indicated by “P”; insolubility is indicated by “I”
# protocol conditions: 10 mg compound in 0.5 ml milliQ water (distilled water); 60° C. or more, ultrasound one hour, then room temperature

- compound: "Cc1cn([C@H]2C[C@H](OP(=O)(O)OCCCCCCCCCCCCOP(=O)(O)O[C@H]3C[C@H](n4cc(C)c(=O)[nH]c4=O)O[C@@H]3CO)[C@@H](CO)O2)c(=O)[nH]c1=O"
  formation of a gel, milliQ water: "S"
- compound: "Cc1cn([C@H]2C[C@H](OP(=O)(O)OCCCCCCCCCCCCCCCCCCOP(=O)(O)O[C@H]3C[C@H](n4cc(C)c(=O)[nH]c4=O)O[C@@H]3CO)[C@@H](CO)O2)c(=O)[nH]c1=O"
  formation of a gel, milliQ water: "G"
- compound: "Cc1cn(C2CC(OP(=O)(O)OCCCCCCCCCCCCCCCOP(=O)(O)OC3CC(n4cc(C)c(=O)[nH]c4=O)OC3CO)C(CO)O2)c(=O)[nH]c1=O (stereo not shown)"
  formation of a gel, milliQ water: "P"
- compound: "Cc1cn(C2CC(OP(=O)(O)OCCCCCCCCCCCCCCOP(=O)(O)OC3CC(n4cc(C)c(=O)[nH]c4=O)OC3CO)C(CO)O2)c(=O)[nH]c1=O (stereo not shown)"
  formation of a gel, milliQ water: "S"
- compound: "Cc1cn([C@H]2C[C@H](OP(=O)(O)OCCCCCCCCCCCCCCCCCCCCOP(=O)(O)O[C@H]3C[C@H](n4cc(C)c(=O)[nH]c4=O)O[C@@H]3CO)[C@@H](CO)O2)c(=O)[nH]c1=O"
  formation of a gel, milliQ water: "G"
- compound: "Cc1cn([C@H]2C[C@H](OP(=O)(O)OCCCCCCCCCCCCCOP(=O)(O)O[C@H]3C[C@H](n4cc(C)c(=O)[nH]c4=O)O[C@@H]3CO)[C@@H](CO)O2)c(=O)[nH]c1=O"
  formation of a gel, milliQ water: "S"
- compound: "Cc1cn([C@H]2C[C@H](OP(=O)(O)OCCCCCCCCCCCCCCCCOP(=O)(O)O[C@H]3C[C@H](n4cc(C)c(=O)[nH]c4=O)O[C@@H]3CO)[C@@H](CO)O2)c(=O)[nH]c1=O"
  formation of a gel, milliQ water: "P"
